Molecular target: human ether-à-go-go-related gene (hERG) potassium channel (human)
Experiment: primary screen, population patch clamp on CHO cells stably expressing hERG; higher = less effect of the substance
The campaign covered roughly 310,000 compounds. About 14,000 (4.5%) showed an effect of 50% or more. The effect is printed as a negative number. Many of the other results were omitted from the sample, so strong results are more common in it than they were.
Output 1 for hERG current change (%, negative = inhibition) at 10uM not less than -20%; output 0 otherwise.

Is the recorded value of hERG current change (%, negative = inhibition) at 10uM equal to or greater than -20% for this compound? "COCCNC(=O)CN1CCC(n2c(C)nc3cc(C(F)(F)F)ccc32)CC1"
0

New cases:
Is the recorded value of hERG current change (%, negative = inhibition) at 10uM equal to or greater than -20% for this compound? "COC(=O)c1ccccc1NC(=O)CN1CCC(n2nnc3cc(C(F)(F)F)ccc32)CC1"
1

Is the recorded value of hERG current change (%, negative = inhibition) at 10uM equal to or greater than -20% for this compound? "O=C(CN1CCC(n2nnc3cc(C(F)(F)F)ccc32)CC1)NNC(=O)c1ccco1"
0

Is the recorded value of hERG current change (%, negative = inhibition) at 10uM equal to or greater than -20% for this compound? "COCC(=O)N1CCC(n2nnc3cc(C(F)(F)F)ccc32)CC1"
0

Is the recorded value of hERG current change (%, negative = inhibition) at 10uM equal to or greater than -20% for this compound? "C=CCNC(=O)CN1CCC(n2nnc3cc(C(F)(F)F)ccc32)CC1"
0

* * *

Biological target: human ether-à-go-go-related gene (hERG) potassium channel (human, UniProt Q12809)
Sequence (Q12809 whole entry, looked up): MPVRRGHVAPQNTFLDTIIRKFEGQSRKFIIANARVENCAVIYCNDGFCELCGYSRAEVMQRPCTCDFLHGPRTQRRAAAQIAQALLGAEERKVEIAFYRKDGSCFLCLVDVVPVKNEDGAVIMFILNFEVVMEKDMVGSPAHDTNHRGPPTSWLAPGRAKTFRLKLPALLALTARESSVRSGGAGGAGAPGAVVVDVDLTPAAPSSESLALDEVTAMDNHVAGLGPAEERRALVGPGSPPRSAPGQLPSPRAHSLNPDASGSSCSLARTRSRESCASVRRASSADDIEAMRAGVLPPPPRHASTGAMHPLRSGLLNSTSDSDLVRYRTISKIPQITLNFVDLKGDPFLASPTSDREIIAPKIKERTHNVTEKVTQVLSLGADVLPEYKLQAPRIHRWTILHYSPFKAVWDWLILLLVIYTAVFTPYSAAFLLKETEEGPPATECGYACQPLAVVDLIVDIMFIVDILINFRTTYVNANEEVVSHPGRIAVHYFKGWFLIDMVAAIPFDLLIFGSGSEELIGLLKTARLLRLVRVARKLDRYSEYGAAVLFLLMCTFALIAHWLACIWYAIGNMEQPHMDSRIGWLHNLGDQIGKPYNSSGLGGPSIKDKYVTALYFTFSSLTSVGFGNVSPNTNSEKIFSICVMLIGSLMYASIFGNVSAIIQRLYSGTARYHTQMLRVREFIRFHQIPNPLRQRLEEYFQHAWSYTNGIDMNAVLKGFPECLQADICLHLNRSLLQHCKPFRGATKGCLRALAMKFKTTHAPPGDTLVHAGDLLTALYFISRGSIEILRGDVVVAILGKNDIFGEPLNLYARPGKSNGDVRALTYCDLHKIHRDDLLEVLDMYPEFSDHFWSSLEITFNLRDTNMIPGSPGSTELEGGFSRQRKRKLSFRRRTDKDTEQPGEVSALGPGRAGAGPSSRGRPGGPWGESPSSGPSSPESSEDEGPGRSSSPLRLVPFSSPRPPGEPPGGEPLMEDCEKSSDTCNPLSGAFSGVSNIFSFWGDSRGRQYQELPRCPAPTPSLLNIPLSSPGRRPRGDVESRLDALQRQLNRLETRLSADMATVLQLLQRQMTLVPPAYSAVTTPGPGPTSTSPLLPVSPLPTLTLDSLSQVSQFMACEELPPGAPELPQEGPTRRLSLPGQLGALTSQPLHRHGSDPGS
Assay: primary screen, population patch clamp on CHO cells stably expressing hERG; higher = less effect of the substance
Hit rate of the full screen: of about 310,000 compounds, about 14,000 (4.5%) showed an effect of 50% or more. The effect is printed as a negative number. The entries come from a sample that favours strong results as a whole.
Please go through the items and note down their hERG current change (%, negative = inhibition) at 10uM.
Answers are plain numbers, in %.

Bench note: what hERG current change (%, negative = inhibition) at 10uM did CC1=NN(C(=O)c2ccc(Cn3cc([N+](=O)[O-])cn3)cc2)C(O)(C(F)(F)F)C1 (stereo not shown) show?
-21.1

Bench note: what hERG current change (%, negative = inhibition) at 10uM did "CC(=O)Nc1ccc(S(=O)(=O)NNC(=S)NCc2ccco2)cc1" show?
12.1

Bench note: what hERG current change (%, negative = inhibition) at 10uM did "CC1(C)CC(=O)C=C(NCCO)C1" show?
-0.4

Bench note: what hERG current change (%, negative = inhibition) at 10uM did "COc1ccc(C(=O)Oc2cc(N)n(S(=O)(=O)c3ccccc3)n2)cc1" show?
-7.73

Bench note: what hERG current change (%, negative = inhibition) at 10uM did "C#CC[N+](C)(C)CCCCCCCCCC.[Br-]" show?
-38.4

For every item below, please supply its hERG current change (%, negative = inhibition) at 10uM.
1. C#CC[N+](C)(C)CCCCCCCC.[Br-]
2. COCCCNC(=S)N1CCC(NC(=O)c2ccco2)CC1

1. -15.9
2. -4.82

* * *

Biological target: human ether-à-go-go-related gene (hERG) potassium channel (human, UniProt Q12809);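 further: peak tail current of the secondary pulse compared with the same well before compound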
Assay: primary screen, population patch clamp on CHO cells stably expressing hERG; higher = less effect of the substance
Out of some 310,000 compounds screened, about 14,000 (4.5%) showed an effect of 50% or more. Effects have a minus sign here. This excerpt belongs to a sample that is enriched for strong results.
Please go through the items and note down their hERG current change (%, negative = inhibition) at 10uM.
One number for each entry, in %.

Worked examples follow.
Bench note: what hERG current change (%, negative = inhibition) at 10uM did COc1ccc(C(=O)Nc2ccc(NC(C)=O)cc2)cc1S(=O)(=O)N1CCCCC1C (centres unmarked) show?
1.47

Bench note: what hERG current change (%, negative = inhibition) at 10uM did "COc1cc2nc(SCC(N)=O)n(CCC3=CCCCC3)c(=O)c2cc1OC" show?
-10.9

Bench note: what hERG current change (%, negative = inhibition) at 10uM did O=C(CN1C(=O)C2CCCCC2C1=O)Nc1nc(-c2ccc(F)cc2)cs1 (centres unmarked) show?
5.21

For every item below, please supply its hERG current change (%, negative = inhibition) at 10uM.
1. CCc1ccc(NC(=O)C2CCCCC2C(=O)O)cc1 (centres unmarked)
2. CC1=NNC(=O)C1CCC(=O)N/N=C\c1ccccc1[N+](=O)[O-] (centres unmarked)
3. O=C(Nc1ccccc1)C(Cc1cccs1)c1nn[nH]n1 (centres unmarked)
4. COc1ccc(C(CNC(=O)c2ccc(Cl)c(S(=O)(=O)N3CCCC3)c2)N2CCCC2)cc1 (centres unmarked)

11.8
0.38
-0.965
-57.6

For every item below, please supply its hERG current change (%, negative = inhibition) at 10uM.
1. COc1ccc(/C=C/C(=O)NCC(=O)N2CCC(N(C)CCN3CCOCC3)CC2)cc1OC
2. CCOC(=O)C(Cc1c(F)cccc1F)(NC(C)=O)C(=O)OCC
3. COc1ccc(C(CNC(=O)c2cc(S(=O)(=O)N3CCCC3)ccc2Cl)N2CCCC2)cc1 (centres unmarked)
4. Cc1ccccc1/C=C/C(=O)NCC(=O)N1CCC(N(C)C2CCCCC2C)CC1 (centres unmarked)

1. 14.7
2. 8.41
3. -31.6
4. -72.1

For every item below, please supply its hERG current change (%, negative = inhibition) at 10uM.
1. CC(=O)N1N=C(c2ccc(NS(=O)(=O)c3ccccc3)cc2)CC1c1ccco1 (centres unmarked)
2. COc1ccc(C(=O)NCCc2c[nH]c3ccccc23)cc1S(=O)(=O)N1CCCCC1C (centres unmarked)

1: -12.2; 2: -12

* * *

Molecular target: human ether-à-go-go-related gene (hERG) potassium channel (human, UniProt Q12809);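 further: peak tail current of the secondary pulse compared with the same well before compound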
Experiment: primary screen, population patch clamp on CHO cells stably expressing hERG; higher = less effect of the substance
In all, about 310,000 compounds went through this assay and about 14,000 (4.5%) showed an effect of 50% or more. The effect is printed as a negative number. This is one part of a sample in which strong results are shown more often than they occur.
result.type: hERG current change (%, negative = inhibition) at 10uM

Worked examples follow.
Bench note: what hERG current change (%, negative = inhibition) at 10uM did "CCc1cccc(NC(=O)COC(=O)C2CCN(c3ccc(C(F)(F)F)cn3)CC2)c1" show?
-4.68%

Bench note: what hERG current change (%, negative = inhibition) at 10uM did O=[N+]([O-])CC(c1ccccc1)c1c[nH]c2ccccc12 (centres unmarked) show?
10.6%

Bench note: what hERG current change (%, negative = inhibition) at 10uM did "CCN(CC)c1ccc(N=Cc2c(O)[nH]c(=O)[nH]c2=O)cc1" show?
-1.25%

Bench note: what hERG current change (%, negative = inhibition) at 10uM did "CCN(CC(=O)Nc1ccc(NC(C)=O)cc1)C(=O)c1ccc(NC2CC2)c([N+](=O)[O-])c1" show?
-46.1%

For the next question, use this compound.
Bench note: what hERG current change (%, negative = inhibition) at 10uM did "COc1ccc(NC(=O)CN(C)C(=O)c2ccc(NC3CC3)c([N+](=O)[O-])c2)cc1" show?
-72.8%

* * *

Molecular target: human ether-à-go-go-related gene (hERG) potassium channel (human, UniProt Q12809);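 further: peak tail current of the secondary pulse compared with the same well before compound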
Assay: primary screen, population patch clamp on CHO cells stably expressing hERG; higher = less effect of the substance
About 14,000 (4.5%) of roughly 310,000 compounds showed an effect of 50% or more. Effects have a minus sign here. Shown is part of a subset that was picked to be rich in strong results.
Please go through the items and note down their hERG current change (%, negative = inhibition) at 10uM.
Give bare numbers, in %.

For every item below, please supply its hERG current change (%, negative = inhibition) at 10uM.
1. Cc1csc(SCC(=O)Nc2cccc(S(=O)(=O)N3CCOCC3)c2)n1
2. CN(C)c1ccc(CN(C(=O)c2cc3ccccc3oc2=O)C2CCS(=O)(=O)C2)cc1 (centres unmarked)
3. Cc1oc(C(C)(C)C)cc1C(N)=O
4. O=C(Nc1ccc(NC(=O)C2CC2)nc1)c1cccs1

1. -6.13
2. -11.8
3. 12.7
4. 14

* * *

Molecular target: human ether-à-go-go-related gene (hERG) potassium channel (human);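 further: peak tail current of the secondary pulse compared with the same well before compound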
Test: primary screen, population patch clamp on CHO cells stably expressing hERG; higher = less effect of the substance
In all, about 310,000 compounds went through this assay and about 14,000 (4.5%) showed an effect of 50% or more. The effect is printed as a negative number. For the sample, strong results were picked, then their nearest neighbours and some compounds at random.
Output TRUE for hERG current change (%, negative = inhibition) at 10uM not less than -50%; output FALSE otherwise.

Below are worked cases with known answers.
Is the recorded value of hERG current change (%, negative = inhibition) at 10uM equal to or greater than -50% for this compound? "COc1ccc2c(C)cc(N3CCCCCC3)nc2c1.O=C(O)C(=O)O"
FALSE

Is the recorded value of hERG current change (%, negative = inhibition) at 10uM equal to or greater than -50% for this compound? "COCCn1c(COc2ccc(C)cc2)nc2ccccc21"
TRUE

Is the recorded value of hERG current change (%, negative = inhibition) at 10uM equal to or greater than -50% for this compound? "C=CCn1c(COc2ccc(OC)cc2)nc2ccccc21"
FALSE

Is the recorded value of hERG current change (%, negative = inhibition) at 10uM equal to or greater than -50% for this compound? "C=CCn1c(COc2ccccc2)nc2ccccc21"
TRUE

Is the recorded value of hERG current change (%, negative = inhibition) at 10uM equal to or greater than -50% for this compound? "CCOCCn1c(COc2ccc(C)cc2)nc2ccccc21"
FALSE

Shift focus to the following entry.
Is the recorded value of hERG current change (%, negative = inhibition) at 10uM equal to or greater than -50% for this compound? COc1ccc(S(=O)(=O)NC(C)CCc2ccccc2)cc1 (stereo not drawn)
TRUE
